So I've got a bunch of binders here, and I need their OD492 values.
target system: T1, HCV Core1-169 (HCV-1, UniProt P26664 1-169)
T1 construct: also called Solid Phase HCV Core
T1 sequence: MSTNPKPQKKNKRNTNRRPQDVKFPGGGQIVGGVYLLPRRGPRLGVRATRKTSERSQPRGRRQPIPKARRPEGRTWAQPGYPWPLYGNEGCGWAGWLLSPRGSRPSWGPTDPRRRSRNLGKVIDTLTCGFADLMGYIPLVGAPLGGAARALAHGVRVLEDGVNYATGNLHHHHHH
assay remarks: sandwich EIA, capture C11-9
State just the number; it will be interpreted in OD.

Look up OD492: HCV 208A-692 (antibody, V domains shown) VH: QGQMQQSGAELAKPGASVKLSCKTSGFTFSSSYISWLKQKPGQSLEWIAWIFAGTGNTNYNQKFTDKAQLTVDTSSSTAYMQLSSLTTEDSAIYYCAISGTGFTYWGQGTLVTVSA VL: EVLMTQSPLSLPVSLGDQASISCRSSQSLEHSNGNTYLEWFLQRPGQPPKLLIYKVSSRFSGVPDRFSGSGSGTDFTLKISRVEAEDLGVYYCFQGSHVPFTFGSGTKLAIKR 2.66

What do you have for HCV 208B-1096 (antibody, V domains shown) VH: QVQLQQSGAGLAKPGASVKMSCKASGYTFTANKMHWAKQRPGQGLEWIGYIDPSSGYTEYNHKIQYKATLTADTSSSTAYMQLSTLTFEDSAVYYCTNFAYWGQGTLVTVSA VL: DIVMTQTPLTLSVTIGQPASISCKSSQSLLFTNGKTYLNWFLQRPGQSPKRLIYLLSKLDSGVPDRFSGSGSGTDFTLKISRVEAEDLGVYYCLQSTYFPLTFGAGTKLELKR ? 0.33

What do you have for HCV 208B-395 (antibody, V domains shown) VH: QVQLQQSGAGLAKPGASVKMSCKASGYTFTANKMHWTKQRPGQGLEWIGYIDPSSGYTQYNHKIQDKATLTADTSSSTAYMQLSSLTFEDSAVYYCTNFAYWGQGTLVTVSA VL: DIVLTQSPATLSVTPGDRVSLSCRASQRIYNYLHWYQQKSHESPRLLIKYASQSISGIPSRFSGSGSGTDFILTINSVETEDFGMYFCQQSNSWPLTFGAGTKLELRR ? 0.32
